Measured inhibition by item
molecular target: Platelet-activating factor acetylhydrolase (Mus musculus) (UniProt Q60963); assay: serine hydrolase inhibition in mouse brain membranes, late-stage follow-up, selectivity assay for DAGLb inhibitor project, biochemical, gel-based competitive ABPP, fluorescence, set 2 (AID 602323); details: mouse brain membrane, PLA2G7, at 1 µM, stronger effect = higher value
Sequence (Q60963 whole entry, looked up): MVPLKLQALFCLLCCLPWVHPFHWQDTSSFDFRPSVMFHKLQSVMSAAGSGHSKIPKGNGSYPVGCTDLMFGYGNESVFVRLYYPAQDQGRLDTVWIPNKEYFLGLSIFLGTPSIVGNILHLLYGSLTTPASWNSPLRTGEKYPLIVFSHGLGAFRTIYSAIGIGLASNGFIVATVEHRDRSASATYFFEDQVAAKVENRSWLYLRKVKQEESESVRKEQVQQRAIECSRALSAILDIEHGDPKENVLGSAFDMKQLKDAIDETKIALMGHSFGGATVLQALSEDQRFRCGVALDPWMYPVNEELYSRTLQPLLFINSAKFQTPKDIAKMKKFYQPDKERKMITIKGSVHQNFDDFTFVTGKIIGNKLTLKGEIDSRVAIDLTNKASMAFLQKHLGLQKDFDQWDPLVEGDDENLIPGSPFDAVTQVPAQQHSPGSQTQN

- molecule: "O=C(N1CCCCC1Cc1ccccc1)n1cc(-c2ccc(-c3ccc(C(F)(F)F)cc3)cc2)nn1 (stereo unspecified)"
  inhibition / %: 50
- molecule: "O=C(N1CCCCC1Cc1ccccc1)n1cc(-c2ccccc2-c2ccccc2)nn1 (stereo unspecified)"
  inhibition / %: 40
- molecule: "O=C(N1CCCCC1Cc1ccccc1)n1cc(-c2ccc(-c3ccccc3)cc2)nn1 (stereo unspecified)"
  inhibition / %: 40
- molecule: "Cc1ccccc1-c1ccc(-c2cn(C(=O)N3CCCCC3Cc3ccccc3)nn2)cc1 (stereo unspecified)"
  inhibition / %: 80
- molecule: "O=C(N1CCCCC1Cc1ccccc1)n1cc(-c2ccc(-c3ccccc3CO)cc2)nn1 (stereo unspecified)"
  inhibition / %: 20
- molecule: "O=C(c1ccc(-c2cn(C(=O)N3CCCCC3Cc3ccccc3)nn2)cc1)N1CCCCC1 (stereo unspecified)"
  inhibition / %: 30

---

target: Diacylglycerol lipase-beta (Mus musculus); assay: serine hydrolase inhibition in mouse brain membranes, late-stage follow-up, selectivity assay for DAGLb inhibitor project, biochemical, gel-based competitive ABPP, fluorescence, set 2 (AID 602323); settings: mouse brain membrane, DAGLb, at 1 µM
Activity calls are given as the source filed them. How the calls were made is not given here.
Outcome codes: 1 = active, 0 = inactive

- compound: "O=C(N1CCCCC1Cc1ccccc1)n1cc(-c2ccc(-c3ccc4c(c3)OCO4)cc2)nn1 (stereo unspecified)"
  group.label: 0
- compound: "O=C(N1CCCCC1Cc1ccccc1)n1cc(-c2ccc(OC(F)(F)F)cc2)nn1 (stereo unspecified)"
  group.label: 1
- compound: "CC(C)(C)OC(=O)NCCCCCN(CCc1ccccc1)C(=O)n1cc(-c2ccc(OC(F)(F)F)cc2)nn1"
  group.label: 1
- compound: "O=C(N1CCCCC1Cc1ccccc1)n1cc(-c2ccc(-c3ccccc3)cc2)nn1 (stereo unspecified)"
  group.label: 1
- compound: "O=C(N1CCCCC1Cc1ccccc1)n1cc(-c2ccc(-c3ccccc3OC(F)(F)F)cc2)nn1 (stereo unspecified)"
  group.label: 1
- compound: "O=C(N(CCc1ccccc1)Cc1ccco1)n1cc(-c2ccc(OC(F)(F)F)cc2)nn1"
  group.label: 1
- compound: "O=C(N1CCCCC1Cc1ccccc1)n1cc(-c2ccc(-c3ccccc3Cl)cc2)nn1 (stereo unspecified)"
  group.label: 1
- compound: "O=C(N1CCCCC1Cc1ccccc1)n1cc(-c2ccc(-c3ccccc3C(F)(F)F)cc2)nn1 (stereo unspecified)"
  group.label: 1
- compound: "O=C(N1CCCCC1Cc1ccccc1)n1ncc(-c2ccc(OC(F)(F)F)cc2)n1 (stereo unspecified)"
  group.label: 1
- compound: "O=C(N1CCCCC1Cc1ccccc1)n1cc(-c2ccc(-c3ccc(C(F)(F)F)cc3)cc2)nn1 (stereo unspecified)"
  group.label: 0
- compound: "O=C(c1ccc(-c2ccc(-c3cn(C(=O)N4CCCCC4Cc4ccccc4)nn3)cc2)cc1)N1CCCCC1 (stereo unspecified)"
  group.label: 0
- compound: "O=C(N1CCCCC1Cc1ccccc1)n1cc(-c2ccccc2-c2ccccc2)nn1 (stereo unspecified)"
  group.label: 1
- compound: "O=C(N1CCCCC1Cc1ccccc1)n1cc(-c2ccc(-c3ccoc3)cc2)nn1 (stereo unspecified)"
  group.label: 1
- compound: "O=C(N1CCCCC1Cc1ccccc1)n1cc(-c2cc(F)cc(F)c2)nn1 (stereo unspecified)"
  group.label: 1
- compound: "O=C(N1CCCCC1Cc1ccccc1)n1cc(-c2ccc(-c3ccccc3CO)cc2)nn1 (stereo unspecified)"
  group.label: 1
- compound: "O=C(N1CCCCC1Cc1ccccc1)n1cc(-c2ccc(-c3ccc(OC(F)(F)F)cc3)cc2)nn1 (stereo unspecified)"
  group.label: 0
